Data origin, for the record: patent US20250346644A1

TARGET OR SYSTEM: T1, hIL2-DM-his (human, UniProt P60568 21-153)
T1 construct: expressed in ExpiCHO-S cells, nickel-column purified; also called hIL-2 mutein containing two point mutations K64G and N90R (with a his-tag); not shown: his-tag
T1 sequence (P60568 21-153 K84G/N110R): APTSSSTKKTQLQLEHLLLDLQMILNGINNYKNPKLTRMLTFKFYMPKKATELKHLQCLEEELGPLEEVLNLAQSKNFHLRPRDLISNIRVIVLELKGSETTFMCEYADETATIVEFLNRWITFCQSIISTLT
MEASUREMENT NOTES: BLI ForteBio, Ab on Protein A sensor
Binary label based on kon with cut-off 400000 M⁻¹ s⁻¹: below gives yes (1), not below gives no (0).

>  <BINDER>
K4G10 (antibody, V domains shown) VH: QVQLVQSGAEVKKPGATVKISCKVSGDTITAYYMHWVRQAPGQGLEWIGRIDPDDDSTKYAENFKGRVTITADTSTDTAYMELSSLRSEDTAVYYCTTITFYYTRELRWFAYWGQGTLVTVSS VL: DIVLTQSPATLSLSPGERATLSCQASQYIGNYLSWYQQKPGQAPRLLIYSATSLASGIPARFSGSRSGTDFTLTISSLEPEDFAVYYCLQHYSTPYTFGQGTKLEIK

>  <CAT>
yes (1)

$$$$
>  <BINDER>
K4G5 (antibody, V domains shown) VH: QVQLVQSGAEVKKPGATVKISCKVSGDTITAYYMHWVRQAPGQGLEWIGRIDPEDDSTKYAENFKGRVTITADTSTDTAYMELSSLRSEDTAVYYCTTVTFYYTRELRWFAYWGQGTLVTVSS VL: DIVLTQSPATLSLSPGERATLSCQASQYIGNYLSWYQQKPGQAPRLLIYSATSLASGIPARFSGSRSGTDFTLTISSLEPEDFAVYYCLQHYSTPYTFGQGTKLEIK

>  <CAT>
no (0)

$$$$
>  <BINDER>
K4G12 (antibody, V domains shown) VH: QVQLVQSGAEVKKPGATVKISCKVSGDTITAYYMHWVRQAPGQGLEWIGRIDPDDDSTKYAENFKGRVTITADTSTDTAYMELSSLRSEDTAVYYCTTITFLYTRELRWFAYWGQGTLVTVSS VL: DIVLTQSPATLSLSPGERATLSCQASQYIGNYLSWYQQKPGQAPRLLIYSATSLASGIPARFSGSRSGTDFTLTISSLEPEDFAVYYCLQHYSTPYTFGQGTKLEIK

>  <CAT>
no (0)

$$$$

Lookup: Does K3G5 (antibody, V domains shown) VH: QVQLVQSGAEVKKPGATVKISCKVSGDTITAYYMHWVRQAPGQGLEWIGRIDPEDDSTKYAENFKGRVTITADTSTDTAYMELSSLRSEDTAVYYCTTVTFYYTRELRWFAYWGQGTLVTVSS VL: DIVLTQSPATLSLSPGERATLSCQASQYIGNYLSWYQQKPGQAPRLLIYQATSLASGIPARFSGSRSGTDFTLTISSLEPEDFAVYYCLQHYSTPYTFGQGTKLEIK have kon strictly under 400000 M⁻¹ s⁻¹?
Found: yes (1)
